Here, each record is paired with measured pIC50 data.
study.target: rat pancreas (3H-CCK-8-(SO3 H) receptor binding) (Rattus norvegicus, UniProt P30551)
Construct: pancreas approximately 0.100 mg protein in 1 mL final volume; from tissue; host or cells: rat pancreas membrane homogenate
Sequence (P30551 1-444): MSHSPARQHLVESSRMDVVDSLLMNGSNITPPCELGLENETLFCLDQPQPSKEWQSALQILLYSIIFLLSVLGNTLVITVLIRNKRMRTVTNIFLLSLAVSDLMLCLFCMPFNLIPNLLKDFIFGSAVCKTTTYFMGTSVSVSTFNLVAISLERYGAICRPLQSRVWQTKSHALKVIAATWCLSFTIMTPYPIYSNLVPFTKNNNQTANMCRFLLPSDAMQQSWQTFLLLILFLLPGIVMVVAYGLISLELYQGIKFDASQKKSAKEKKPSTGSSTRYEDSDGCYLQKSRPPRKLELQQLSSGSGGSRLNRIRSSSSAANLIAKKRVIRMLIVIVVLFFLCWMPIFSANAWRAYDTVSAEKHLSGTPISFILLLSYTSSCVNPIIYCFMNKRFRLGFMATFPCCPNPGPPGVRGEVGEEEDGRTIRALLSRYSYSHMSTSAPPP
assay.summary: In vitro receptor binding assay, 3H-CCK-8-(SO3H), rat pancreas homogenate
cond: 3H-CCK-8-(SO3H) 0.15 nM, 30 min at 25° C., rat pancreas homogenate; read-out: Rate Pancreas IC50 (concentration to inhibit 50% of specific 3H-CCK-8-(SO3H) binding)
Protocol: Frozen bovine striatum (approx. 5 g) or fresh rat pancreas (approx. 5 g) cleaned of fat and extraneous tissue were homogenized in HEPES buffer #1 (10 mM HEPES+130 mM NaCl+5 mM MgCl2, pH 7.4) using 35 parts buffer per 1 part tissue on a wet weight/volume basis (approx. 175 mL). The tissue was homogenized 2×for approx. 15 sec. at 0° C. using a Polytron homogenizer at a setting of 6. The tissue was isolated by centrifugation at 48,000× g for 10 min at 0° C. […]
Starred links: 1 amine or outer side, 2 acyl side, 3 side chain; linkers in the order of their positions; H or OH if unused. Positions of bridges follow the written chain, without caps; N, C: chain ends. Non-standard residues stand in square brackets, D forms with d. Residues, ends and D or L forms follow the SMILES beside them. X8 = O=C(C(Cc1ccc(Cc2nn[nH]n2)cc1)N[*:1])[*:2]; X1 = O=C(O)Cc1ccc(CC(N[*:1])C(=O)[*:2])cc1; X14 = O=C(O)c1cccc(CC(N[*:1])C(=O)[*:2])c1; NMeF = CN[C@@H](Cc1ccccc1)C(=O)O; Nle = CCCC[C@H](N)C(=O)O
The meaning of pIC50 here: minus log10 of the concentration in molar units.

Recorded results for 3 molecules are shown here.
- molecule: "CSCC[C@H](NC(=O)C(Cc1cccc(C(=O)O)c1)NC(C)=O)C(=O)NCC(=O)N[C@@H](Cc1c[nH]c2ccccc12)C(=O)N[C@@H](CCSC)C(=O)N[C@@H](CC(=O)O)C(=O)N[C@@H](Cc1ccccc1)C(N)=O (stereo partly shown) [Example 42] (Ac-[X14]MGWMDF-NH2)"
  data.value: 6.89
- molecule: "CSCC[C@@H]1NC(=O)[C@H](Cc2c[nH]c3ccccc23)NC(=O)CNC(=O)[C@@H](NC(=O)C(Cc2ccc(CC(=O)O)cc2)NC(C)=O)CCCCNC(=O)C[C@@H](C(=O)N(C)[C@@H](Cc2ccccc2)C(N)=O)NC1=O (stereo partly shown) [Example 56] (Ac-[X1]KGWMD[NMeF]-NH2; lactam 2-6)"
  data.value: 5.33
- molecule: "CSCC[C@H](NC(=O)C(Cc1ccc(Cc2nn[nH]n2)cc1)NC(C)=O)C(=O)NCC(=O)N[C@@H](Cc1c[nH]c2ccccc12)C(=O)N[C@@H](CCSC)C(=O)N[C@@H](CC(=O)O)C(=O)N[C@@H](Cc1ccccc1)C(N)=O (stereo partly shown) [Example 60] (Ac-[X8]MGWMDF-NH2)"
  data.value: 6.14

Pending molecule:
Lookup result for CCCC[C@H](NC(=O)C(Cc1ccc(Cc2nn[nH]n2)cc1)NC(C)=O)C(=O)NCC(=O)N[C@@H](Cc1c[nH]c2ccccc12)C(=O)N[C@@H](CCCC)C(=O)N[C@@H](CC(=O)O)C(=O)N(C)[C@@H](Cc1ccccc1)C(N)=O (stereo partly shown) [Example 63] (Ac-[X8][Nle]GW[Nle]D[NMeF]-NH2) ; measured pIC50: 6.19
